- Test System: Butyrylcholinesterase (Rattus norvegicus)
- Sequence (Q9JKC1 whole entry): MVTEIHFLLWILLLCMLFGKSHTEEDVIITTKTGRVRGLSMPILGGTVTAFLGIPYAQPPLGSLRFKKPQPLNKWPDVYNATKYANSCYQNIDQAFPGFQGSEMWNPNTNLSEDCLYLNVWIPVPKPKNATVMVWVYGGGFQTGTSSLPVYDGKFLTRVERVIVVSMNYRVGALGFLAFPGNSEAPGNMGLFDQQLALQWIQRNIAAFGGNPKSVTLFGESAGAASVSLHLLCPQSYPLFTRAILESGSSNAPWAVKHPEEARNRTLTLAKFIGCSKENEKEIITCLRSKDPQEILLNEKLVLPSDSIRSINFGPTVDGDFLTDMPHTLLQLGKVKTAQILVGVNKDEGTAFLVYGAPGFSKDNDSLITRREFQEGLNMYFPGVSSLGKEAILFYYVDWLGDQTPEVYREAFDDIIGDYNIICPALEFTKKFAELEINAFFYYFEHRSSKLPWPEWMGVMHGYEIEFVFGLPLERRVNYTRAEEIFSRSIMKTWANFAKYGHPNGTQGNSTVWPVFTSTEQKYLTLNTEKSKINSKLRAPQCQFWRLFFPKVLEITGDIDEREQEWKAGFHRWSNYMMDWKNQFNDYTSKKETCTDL
- Assay Text: Inhibition of BuChE in Wistar rat plasma using acetylthiocholine iodide as substrate after 0.5 hrs by Ellman's method
Observable: pIC50
pIC50 is a log-scale quantity: -log10 of the concentration expressed in molar.

For CC[C@]12CCN(C)[C@@H]1N(C)c1ccc(OC(=O)Nc3ccccc3)cc12 , what is its reported pIC50? 4.44

Similarly, CNC(=O)Oc1ccc2c(c1)[C@]1(C)CCN(C)[C@@H]1N2C ? 7.23

Next compound up: C=CCC12CCN(C)C1N(C)c1ccc(OC(=O)Nc3ccccc3F)cc12 (racemic) 4.06

What about CN1CC[C@@]2(C)c3cc(OC(=O)Nc4ccccc4)ccc3N(C)C12 (stereo partly specified) ? 4.52

Please answer likewise for CCC12CCN(C)C1N(C)c1ccc(OC(=O)Nc3ccccc3)cc12 (racemic) 4.52
